The measured values listed here are drawn from patent US20080064052A1.

Target: T1, human EphB4 ephrin-binding domain, EphB4 (17-196) (human, UniProt P54760 17-196)
T1 sequence: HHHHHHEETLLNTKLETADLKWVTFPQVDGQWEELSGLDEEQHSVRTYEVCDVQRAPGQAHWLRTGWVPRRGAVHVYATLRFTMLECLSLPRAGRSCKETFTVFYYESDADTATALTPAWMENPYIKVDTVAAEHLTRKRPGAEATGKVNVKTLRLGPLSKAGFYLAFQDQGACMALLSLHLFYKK
Assay: ITC at 25 °C, peptide injected into human EphB4 (17-196)
Item-by-item account of ΔG
Write down the numeric answer in kcal/mol and omit the unit.

binder: LFSPNGPIARAW (TNYL-RAW without Thr-P1, Asn-P2 and Tyr-P3) [LFSP-RAW peptide (LFSPNGPIARAW)]
ΔG [kcal/mol]: -7.4
//
binder: YLFSPNGPIARAW [YLFS-RAW peptide (YLFSPNGPIARAW)]
ΔG [kcal/mol]: -9.7
//
binder: NYLFSPNGPIARAW [NYLF-RAW peptide (NYLFSPNGPIARAW)]
ΔG [kcal/mol]: -9.8

# evaluate next
What value of ΔG has been reported for the following binder? TNYLFSPNGPIARAW (Synthetic 15-mer (Biopeptide, Inc.); Peptide positions are printed as P1 to P15; also called antagonistic peptide) [TNYL-RAW peptide (TNYLFSPNGPIARAW)] -9.8
